System: transient receptor potential cation channel C4 beta (TRPC4), mouse
Assay: TRPC4 cation channel opening, second retest – cell-based, second round, Fluo4, HEK293 TRPC4beta/mu-opioid, 1 µM, confirmation (AID 2461)
Conditions: Fluo4 calcium fluorescence, at 1 µM
Activity calls are given as the source filed them.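 Rule for the calls: active = primary screen active and over 50% activation in each of two duplicate runs; inactive = the rest.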
Outcome codes: yes for active, no for inactive

In [3]: df
Out[3]:
                                    compound  group
 0  CCN(CC(=O)NCc1ccc(Cl)cc1)CC(=O)NC1(C#N)CCCC1     no
 1                  Cc1ccc(NC(=O)c2cccs2)cc1     no
 2  CC12CCCCN1CCCc1c2[nH]c2ccccc12 (stereo not given)     no
 3  CCOc1ccccc1CN1CCC(n2nccc2NC(=O)CCc2ccccc2)CC1     no
 4  C/C(N)=C(/C#N)C(=O)COC(=O)CC12CC3CC(CC(C3)C1)C2     no
 5     O=[N+]([O-])c1ccc(C[n+]2cccc(O)c2)cc1     no
 6       CCN1C(=O)/C(=C\N2CCCc3ccccc32)SC1=S     no
 7  Cc1nc2scc(-c3ccccc3)c2c(=O)n1N=C1C=CC(=O)C=C1     no
 8  CC1CCN(c2nc(Cl)nc(Nc3ccc([N+](=O)[O-])cc3)n2)CC1     no
 9  CC1CCN(CCCNS(=O)(=O)c2cc(Br)cc3c2N(C(=O)C2CC2)CC3)CC1    yes
10  CN(C)c1ccc([N+](=O)[O-])cc1C(=O)NCC(c1ccco1)N(C)C (stereo not given)     no
11         CCCCc1nc(N2CCOCC2)c(C#N)c2c1CCCC2     no
12  COc1ccc(CN2CCC(N(CCc3ccccc3)Cc3ccccc3)CC2)c(OC)c1     no
13                Cc1ccc2nc3c(c(N)c2c1)CCN3C     no
14  CCOC(=O)CC(NS(=O)(=O)c1ccc(OC)c(C)c1)c1cccc([N+](=O)[O-])c1 (stereo not given)     no
